- assayNotes: Colorimetric alkylation rate constant assay with TNB^2− as non-specific thiol
- Assay type: physicochemical
- assaySetup: Replicate 2, 2710 sec, [B]0=250; in µM
measuredMetric: remaining [B]

| molecule | remaining [B] |
| --- | --- |
| COc1cc2sc(C(=O)CCC(=O)O)cc2cc1NC(=O)CCl [Compound E2] | 240.316 |
| C=CS(=O)(=O)Nc1cc2cc(C(=O)CCC(=O)O)sc2cc1OC [Compound E1] | 243.032 |
| O=C(CCl)N1CCOCC1 | 234.041 |
| O=C(CCl)Nc1ccccc1C(=O)O | 244.563 |
| O=C(CCl)Nc1ccc(F)cc1 | 241.142 |
| O=C(CCl)Nc1ccccc1 | 241.469 |

###

- assayNotes: Colorimetric alkylation rate constant assay with thiol N1
- Assay type: physicochemical
- assaySetup: Replicate 3; time 606 sec; N1 from calibration curve (N1 in uM); in µM
measuredMetric: remaining [A]

Some solved entries appear below for comparison.
| molecule | remaining [A] |
| --- | --- |
| O=C(CCl)Nc1ccccc1 [Compound C2] | 80.8202 |
| O=C(CCl)Nc1ccccc1C(=O)O [Compound C5] | 89.4236 |
| O=C(CCl)N1CCOCC1 [Compound C4] | 78.4394 |

I: O=C(CCl)Nc1ccc(F)cc1 [Compound C3]
II: C=CS(=O)(=O)Nc1cc2cc(C(=O)CCC(=O)O)sc2cc1OC [Compound E1]
III: COc1cc2sc(C(=O)CCC(=O)O)cc2cc1NC(=O)CCl [Compound E2]
Parameters: sort_field (remaining [A]), sort_dir (desc). Output spec: labels arranged per the requested ranking.
I, II, III
(I: 79.3051, II: 36.1527, III: 16.538)

###

- assayNotes: Colorimetric alkylation rate constant assay with TNB^2− as non-specific thiol
- Format: physicochemical
- assaySetup: Replicate 2, 1988 sec, [B]0=250; in µM
measuredMetric: remaining [B]

| compound | remaining [B] |
| --- | --- |
| C=CS(=O)(=O)Nc1cc2cc(C(=O)CCC(=O)O)sc2cc1OC [Compound E1] | 244.304 |
| O=C(CCl)Nc1ccccc1 | 242.78 |
| COc1cc2sc(C(=O)CCC(=O)O)cc2cc1NC(=O)CCl [Compound E2] | 241.4 |
| O=C(CCl)N1CCOCC1 | 236.687 |
| O=C(CCl)Nc1ccccc1C(=O)O | 244.928 |
| O=C(CCl)Nc1ccc(F)cc1 | 242.326 |

###

- Test system: THP-1 Lucia ISG cells (interferon pathway)
- assayNotes: Potency test of purified dimers on THP-1 Lucia ISG reporter cells
- Assay type: cell-based, human
- assaySetup: Homo sapiens, THP1-Lucia ISG; 24 h, three biological replicates; read-out: EC50, THP-1 Lucia interferon reporter
measuredMetric: EC50 (µM)
// units = µM; emit number, no label

| lineNotation | unitDescriptor | EC50 |
| --- | --- | --- |
| COc1cc2sc(C(=O)CCC(=O)O)cc2cc1SCCSc1cc2cc(C(=O)CCC(=O)O)sc2cc1OC | µM | 0.71 |

Please look at the following compound next.
Look at this compound and give its reported EC50. COc1cc2cc(C(=O)CCC(=O)O)sc2cc1OC
15
